Entry source: PubChem BioAssay (NCI)

- Test system: T-47D breast
- Protocol description: NCI tumour cell line growth inhibition, 48 h
Item-by-item account of GI50

{"Compound": "O=C1CC(N2C(=O)/C(=C/C(Cl)=C\\c3ccc([N+](=O)[O-])cc3)SC2=S)C(=O)N1c1ccc(O)cc1 (stereo unspecified)", "GI50": "2.45 µM"}
{"Compound": "COc1cc(C2CC(=O)Nc3c2c(C)nn3-c2nc3ccccc3[nH]2)cc(OC)c1O (stereo unspecified)", "GI50": "3.45 µM"}
{"Compound": "O=[N+]([O-])c1ccc2c(c1)C(c1ccccc1Cl)=Nc1c(n[nH]c1-c1cccnc1)N2", "GI50": "> 25 µM"}
{"Compound": "COc1ccc2c(c1)C(c1cc(OC)c3c(c1)OCO3)C1=C(COC1=O)N2 (stereo unspecified)", "GI50": "6.67 µM"}
{"Compound": "Cc1ccsc1-c1ccc2c(c1)COC2(CCCN(C)C)c1ccc(F)cc1 (stereo unspecified)", "GI50": "2.15 µM"}
{"Compound": "CCCCCCCCCCCCCCCCN(CC)CC", "GI50": "3.39 µM"}
{"Compound": "C=C1C(=O)O[C@H]2[C@H]1CC/C(CNC(=O)/C=C/c1ccccc1F)=C\\CC[C@@]1(C)O[C@@H]21", "GI50": "1.74 µM"}
{"Compound": "CN(C)CCOc1ccccc1NC1=C(Cl)C(=O)C(Nc2ccccc2OCCN(C)C)=C(Cl)C1=O", "GI50": "0.811 µM"}
{"Compound": "CC(C)C(=O)c1c(C(F)(F)F)n([O-])c2ccccc2[n+]1=O", "GI50": "0.827 µM"}
{"Compound": "COc1ccc(Cn2cc3c(c2-c2cc(OC)c(OC)c(OC)c2)CCc2c(CO)noc2-3)cc1", "GI50": "0.376 µM"}
{"Compound": "CCCN(CCC)c1ccc(C=O)c(C)c1", "GI50": "20.8 µM"}
{"Compound": "COc1cc2nc3cc([N+](=O)[O-])ccc3c(NCCNCC(C)O)c2cc1OC (stereo unspecified)", "GI50": "0.365 µM"}
{"Compound": "COc1ccc2nc3cccc([N+](=O)[O-])c3c(NC(C)CN(C)C)c2c1 (stereo unspecified)", "GI50": "5.52 µM"}
{"Compound": "CN(C)CCNC(=O)c1ccc2oc3cc4ccccc4c(=O)n3c2c1", "GI50": "34.6 µM"}
{"Compound": "N#Cc1c(N/N=C\\c2ccc(Cl)cc2)nc(N)nc1N1CCOCC1", "GI50": "> 100 µM"}
{"Compound": "Cn1cc(C2=C(c3cn(CCCCCO)c4ccccc34)C(=O)NC2=O)c2ccccc21", "GI50": "6.44 µM"}
{"Compound": "NCCSC(c1ccccc1)(c1ccccc1)c1ccccc1", "GI50": "2.62 µM"}
{"Compound": "O=c1oc2ccc(Br)cc2c(=O)n1-c1ccc(Cl)cc1F", "GI50": "0.597 µM"}
{"Compound": "C=C1c2nc3ccccc3n2C=C(c2ccc(Cl)cc2)N1c1ccc(OCCN2CCCCC2)cc1", "GI50": "> 100 µM"}
{"Compound": "C/C=C(\\C)C(=O)O[C@H]1C=CC(=O)O[C@H]1COC(=O)[C@H](C)O", "GI50": "3.81 µM"}
{"Compound": "O=C(O)c1cn(C2CC2)c2cc(N3CCN(Cc4c(O)ccc5ccccc45)CC3)c(F)cc2c1=O", "GI50": "> 100 µM"}
